TEST_TARGET: Recombinant Human CTLA4-Fc chimera (R&D systems) (human) (UniProt P16410)
ASSAY_METHOD_TEXT: ELISA, signal over SA
ASSAY_READOUT: ELISA S/N(SA)

Check out these entries, answers already filled in.
[
  {
    "BINDER": "GGCFHPFLPIRSLHFCCR (peptide, not shown: large carriers; small tags and cut ends) [C4m#19-5th4w-NN6-82]",
    "ELISA S/N(SA)": 28.3
  },
  {
    "BINDER": "GGCQHPYLPIWSFHFCPF (peptide, not shown: large carriers; small tags and cut ends) [C4m#19-5th4w-NN6-62]",
    "ELISA S/N(SA)": 17.2
  },
  {
    "BINDER": "GGCRHPFLPIVSWHFCGR (peptide, not shown: large carriers; small tags and cut ends) [C4m#19-5th4w-NN6-44]",
    "ELISA S/N(SA)": 30.1
  },
  {
    "BINDER": "GGCLHPVLPIRSRHFCPV (peptide, not shown: large carriers; small tags and cut ends) [C4m#19-5th4w-NN6-25]",
    "ELISA S/N(SA)": 38.9
  },
  {
    "BINDER": "GGCWHPALPIRSWHFCPR (peptide, not shown: large carriers; small tags and cut ends) [C4m#19-5th4w-NN6-78]",
    "ELISA S/N(SA)": 27.9
  },
  {
    "BINDER": "GGCGHPFLPIFSSHFCPL (peptide, not shown: large carriers; small tags and cut ends) [C4m3127-4th-NNS6-85]",
    "ELISA S/N(SA)": 9.1
  },
  {
    "BINDER": "GGCWHPSLPIYSPHFCPL (peptide, not shown: large carriers; small tags and cut ends) [C4m3127-4th-NNS6-2]",
    "ELISA S/N(SA)": 12.8
  },
  {
    "BINDER": "GGCVHPFLPIRSVHFCAL (peptide, not shown: large carriers; small tags and cut ends) [C4m#19-5th4w-NN6-92-1]",
    "ELISA S/N(SA)": 30
  },
  {
    "BINDER": "GGCWHPFLPIRSSHFCPS (peptide, not shown: large carriers; small tags and cut ends) [C4m#19-5th2w-NNS6-21]",
    "ELISA S/N(SA)": 31.1
  },
  {
    "BINDER": "GGCPHPMLPIFSVHFCPY (peptide, not shown: large carriers; small tags and cut ends) [C4m#19-5th4w-NN6-61]",
    "ELISA S/N(SA)": 5.9
  }
]

a. GGCMHPYLPIVSVHFCPC (peptide, not shown: large carriers; small tags and cut ends) [C4m#19-5th4w-NN6-57]
b. GGCWHPWLPIKSPHFCAL (peptide, not shown: large carriers; small tags and cut ends) [C4m#19-5th2w-NNS6-75]
Compare ELISA S/N(SA): is it lower for a or for b ? Which one? Tell me its label.
b
(b: 15.3, a: 27.7)

Origin of values: patent US20240092836A1
